# System: Oryza sativa
# Assay procedure: Phytotoxicity against two-leaf stage paddy Oryza sativa (rice) seedlings assessed as induction of crop damage after 28 days post compound application
# Type: organism-based
# Experimental setup: in vivo, 672 h
Collected ED20 values appear next to each entry.
Number in gAi/ha, nothing else.

Compound | Test readout | Observed value
COc1ccc(C(O)c2nc(OC)cc(OC)n2)c(NS(=O)(=O)C(F)F)c1 (centres undefined) | ED20 | 16
COc1cc(OC)nc(C(O)c2cccc(OC)c2NS(=O)(=O)C(F)F)n1 (centres undefined) | ED20 | 4
COc1ccc(NS(=O)(=O)C(F)F)c(C(O)c2nc(OC)cc(OC)n2)c1 (centres undefined) | ED20 | 63
CCc1cccc(C(O)c2nc(OC)cc(OC)n2)c1NS(=O)(=O)C(F)F (centres undefined) | ED20 | 63
CCS(=O)(=O)Nc1ccccc1C(O)c1nc(OC)cc(OC)n1 (centres undefined) | ED20 | 1000
COc1cc(OC)nc(C(O)c2ccccc2NS(=O)(=O)C/C=C/Cl)n1 (centres undefined) | ED20 | 250
COc1cc(OC)nc(C(O)c2ccccc2NS(=O)(=O)C(F)(F)F)n1 (centres undefined) | ED20 | 63
COc1cc(OC)nc(C(O)c2ccccc2NS(=O)(=O)C(F)F)n1 (centres undefined) | ED20 | 63
COc1cc(OC)nc(C(OC(C)=O)c2ccccc2NS(=O)(=O)C(F)(F)F)n1 (centres undefined) | ED20 | 63
COc1cc(OC)nc(C(O)c2cccc(C)c2NS(=O)(=O)C(F)F)n1 (centres undefined) | ED20 | 16

Task: Report ED20 for COc1cc(OC)nc(C(c2ccccc2NS(=O)(=O)C(F)(F)F)N(C)C)n1 (centres undefined)
Output: 250

Task: Answer with reported ED20 of CCCOc1cccc(C(O)c2nc(OC)cc(OC)n2)c1NS(=O)(=O)C(F)F (centres undefined)
Output: 63

Task: # return recorded ED20 for entry CC[S+]([O-])C(c1nc(OC)cc(OC)n1)c1ccccc1NS(=O)(=O)C(F)(F)F (centres undefined)
Output: 1000

Task: // Input: CCSC(c1nc(OC)cc(OC)n1)c1ccccc1NS(=O)(=O)C(F)(F)F (centres undefined) . Output its ED20 only.
Output: 63

Task: State its ED20 for this compound: CCCc1cccc(C(O)c2nc(OC)cc(OC)n2)c1NS(=O)(=O)C(F)F (centres undefined)
Output: 63

Task: Determine its reported ED20: C/C=N/OC(c1nc(OC)cc(OC)n1)c1ccccc1NS(=O)(=O)C(F)(F)F (centres undefined)
Output: 63

Task: Determine from records and report ED20 for CCOc1cccc(C(O)c2nc(OC)cc(OC)n2)c1NS(=O)(=O)C(F)F (centres undefined)
Output: 16

Task: # return recorded ED20 for entry COc1cc(OC)nc(C(S)c2ccccc2NS(=O)(=O)C(F)(F)F)n1 (centres undefined)
Output: 250

Task: Complete the entry with ED20 for COc1cc(OC)nc(C(OC)c2ccccc2NS(=O)(=O)C(F)(F)F)n1 (centres undefined)
Output: 63

Task: Hello, please tell me recorded ED20 for this one: COc1cc(OC)nc(C(O)c2ccc(Cl)cc2NS(=O)(=O)C(F)F)n1 (centres undefined)
Output: 63

Task: Please report ED20 for the following compound: COc1cc(OC)nc(C(O)c2c(F)cccc2NS(=O)(=O)C(F)F)n1 (centres undefined)
Output: 16

* * *

# Tested on: Echinochloa oryzicola
# Assay procedure: Herbicidal activity against Echinochloa oryzicola assessed as induction of crop damage after 28 days post compound application
# Format: functional
Test readout: ED20 (gAi/ha)
Give the value, in units of gAi/ha, as a plain number.

Molecule | ED20 / gAi/ha
COc1cc(OC)nc(C(O)c2ccc(Cl)cc2NS(=O)(=O)C(F)F)n1 (stereo not given) | 250
COc1cc(OC)nc(C(O)c2ccccc2NS(N)(=O)=O)n1 (stereo not given) | 1000
COc1cc(OC)nc(C(O)c2ccccc2NS(=O)(=O)CCl)n1 (stereo not given) | 1000
COc1cc(OC)nc(C(O)c2ccccc2NS(=O)(=O)C(F)F)n1 (stereo not given) | 250
CCS(=O)(=O)Nc1ccccc1C(O)c1nc(OC)cc(OC)n1 (stereo not given) | 1000
COc1cc(OC)nc(C(O)c2cccc(OC)c2NS(=O)(=O)C(F)F)n1 (stereo not given) | 16
CCSC(c1nc(OC)cc(OC)n1)c1ccccc1NS(=O)(=O)C(F)(F)F (stereo not given) | 1000
COc1cc(OC)nc(C(O)c2cccc(SC)c2NS(=O)(=O)C(F)F)n1 (stereo not given) | 250

Continue with the next molecule.
Task: Report ED20 for COc1cc(OC)nc(C(O)c2ccccc2NS(C)(=O)=O)n1 (stereo not given)
Output: 1000

* * *

# System: Oryza sativa
# Assay procedure: Phytotoxicity against two-leaf stage paddy Oryza sativa (rice) seedlings assessed as induction of crop damage after 28 days post compound application
# Assay type: organism-based
# Experimental setup: in vivo, 672 h
Test readout: ED20

In the examples that follow, each entry is paired with its recorded ED20.
Compound | ED20
COc1cc(OC)nc(C(O)c2c(Cl)cccc2NS(=O)(=O)C(F)F)n1 (stereo not drawn) | 1000 gAi/ha
COc1cc(OC)nc(C(O)c2ccccc2NS(=O)(=O)C(C)C)n1 (stereo not drawn) | 1000 gAi/ha
COc1cc(OC)nc(C(O)c2cccc(SC)c2NS(=O)(=O)C(F)F)n1 (stereo not drawn) | 63 gAi/ha
COc1cc(OC)nc(C(O)c2ccccc2NS(=O)(=O)CC#N)n1 (stereo not drawn) | 250 gAi/ha
COCc1cccc(C(O)c2nc(OC)cc(OC)n2)c1NS(=O)(=O)C(F)F (stereo not drawn) | 63 gAi/ha

Task: Quick one: give measured ED20 for COc1cc(OC)nc(C(O)c2cc(Cl)ccc2NS(=O)(=O)C(F)F)n1 (stereo not drawn)
Output: 1000 gAi/ha

Task: Indicate its recorded ED20; the compound in question is COc1cc(OC)nc(C(O)c2ccccc2NS(C)(=O)=O)n1 (stereo not drawn)
Output: 63 gAi/ha

Task: Please supply the value of reported ED20 for the item COc1cc(OC)nc(C(O)c2ccccc2NS(=O)(=O)CCl)n1 (stereo not drawn)
Output: 250 gAi/ha

Task: Annotate the compound COc1cc(OC)nc(C(O)c2ccccc2NS(=O)(=O)c2ccccc2)n1 (stereo not drawn) with its measured ED20.
Output: 1000 gAi/ha

Task: Answer with the recorded ED20 of CCS(=O)(=O)C(c1nc(OC)cc(OC)n1)c1ccccc1NS(=O)(=O)C(F)(F)F (stereo not drawn) only.
Output: 1000 gAi/ha

Task: Check the records and state ED20 for COc1cc(OC)nc(C(O[Si](C)(C)C)c2ccccc2NS(=O)(=O)C(F)(F)F)n1 (stereo not drawn)
Output: 63 gAi/ha

Task: Please list ED20 recorded for the compound COc1cc(OC)nc(C(=O)c2ccccc2NS(=O)(=O)C(F)(F)F)n1
Output: 63 gAi/ha

Task: # return recorded ED20 for entry COc1cc(OC)nc(C(O)c2ccccc2NS(N)(=O)=O)n1 (stereo not drawn)
Output: 250 gAi/ha
